Source of measurements: patent US11878970B2

Below: a set of entries, each annotated with reported IC50.
molecular target: PI3K-α (PIK3CA) wild-type (WT), p110α/p85α complex (Homo sapiens); construct: Recombinant, catalytically active human full length PIK3KA Wild-type and H1047R mutant; 6×His (N); purchased EMD Millipore Sigma 14-602M; assay: PI3K-alpha kinase (PIK3CA) biochemical activity, ADP-Glo, wild-type; conditions: Soy PI lipid substrate
parameter-measured: IC50

INSERT INTO measurements (compound, assayed_system, parameter_measured, reading) VALUES
  ('Cc1cc(C(C)Nc2cccc(F)c2C(=O)O)c2oc(-c3ccc4cnn(C)c4c3)cc(=O)c2c1 (single isomer, unassigned) [Example 222]', 'PI3K-α (PIK3CA) wild-type (WT), p110α/p85α complex (Homo sapiens)', 'IC50', '500 to 1000 nM'),
  ('Cc1ccc2c(cnn2-c2cc(=O)c3cc(C)cc(C(C)Nc4ccccc4C(=O)O)c3o2)c1 (single isomer, unassigned) [Example 87]', 'PI3K-α (PIK3CA) wild-type (WT), p110α/p85α complex (Homo sapiens)', 'IC50', '1000 to 5000 nM'),
  ('Cc1cc(C(C)Nc2ccccc2C(=O)O)c2oc(-c3ccc4[nH]ncc4c3)c(C)c(=O)c2c1 (single isomer, unassigned) [Example 132]', 'PI3K-α (PIK3CA) wild-type (WT), p110α/p85α complex (Homo sapiens)', 'IC50', '500 to 1000 nM'),
  ('Cc1cc([C@@H](C)Nc2ccc(Cl)nc2C(=O)O)c2oc(-c3nc4ccccc4o3)c(C)c(=O)c2c1 [Example 263]', 'PI3K-α (PIK3CA) wild-type (WT), p110α/p85α complex (Homo sapiens)', 'IC50', '1000 to 5000 nM'),
  ('Cc1cc(C(C)Nc2ccc(Cl)nc2C(=O)O)c2oc(-c3ccc4nn(C)cc4c3)c(C)c(=O)c2c1 (single isomer, unassigned) [Example 181]', 'PI3K-α (PIK3CA) wild-type (WT), p110α/p85α complex (Homo sapiens)', 'IC50', '< 500 nM'),
  ('Cc1cc(C(C)Nc2ccc(Cl)nc2C(=O)O)c2oc(-c3ccc4nn(C)cc4c3)cc(=O)c2c1 (single isomer, unassigned) [Example 206]', 'PI3K-α (PIK3CA) wild-type (WT), p110α/p85α complex (Homo sapiens)', 'IC50', '< 500 nM');

----------
Each item that follows carries a reported IC50.
Target: PI3K-α (PIK3CA) wild-type (WT), p110α/p85α complex (Homo sapiens)
Construct: Recombinant, catalytically active human full length PIK3KA Wild-type and H1047R mutant; 6×His (N); purchased EMD Millipore Sigma 14-602M
Assay: PI3K-alpha kinase (PIK3CA) biochemical activity, ADP-Glo, wild-type
Conditions: Soy PI lipid substrate
Text: PI3K-Alpha Kinase (PIK3CA) Activity, Wild-Type and H1047R Mutant and Determining IC50 Values for Inhibitors Recombinant, catalytically active human full length PIK3KA Wild-type and H1047R mutant were purchased as 1:1 complex of N-terminal 6×his tagged p110α (catalytic) and untagged p85α (regulatory subunit) from EMD Millipore Sigma (cat. no. 14-602M and 14-792M, respectively). […]
parameter-measured: IC50

INSERT INTO assay_data (compound, reading) VALUES
  ('Cc1cc([C@@H](C)Nc2ccc(F)c(F)c2C(=O)O)c2oc(-c3ccc4nn(C)cc4c3)c(C)c(=O)c2c1 [Example 204]', '500 to 1000 nM'),
  ('Cc1cc([C@@H](C)Nc2ccccc2C(=O)O)c2oc(-c3ccc4nc(C)sc4c3)c(C)c(=O)c2c1 [Example 262]', '500 to 1000 nM'),
  ('Cc1cc(C(C)Nc2cccc(F)c2C(=O)O)c2oc(-c3ccc4nn(C)cc4c3)cc(=O)c2c1 (single isomer, unassigned) [Example 171]', '1000 to 5000 nM'),
  ('Cc1cc(C(C)Nc2ccc(Cl)nc2C(=O)O)c2oc(-c3ccc4nc(C)cn4c3)cc(=O)c2c1 (single isomer, unassigned) [Example 179]', '5000 to 10000 nM'),
  ('Cc1cc(C(C)Nc2ccccc2C(=O)O)c2oc(-c3ccc4ccn(C)c4n3)cc(=O)c2c1 (single isomer, unassigned) [Example 159]', '1000 to 5000 nM'),
  ('Cc1cc(C(C)Nc2cccc(F)c2C(=O)O)c2oc(-c3cc(C)c4nn(C)cc4c3)cc(=O)c2c1 (single isomer, unassigned) [Example 190]', '500 to 1000 nM'),
  ('CC(Nc1ccc(Cl)nc1C(=O)O)c1cc(C(F)(F)F)cc2c(=O)cc(-c3ccc4c(cnn4C)c3)oc12 (single isomer, unassigned) [Example 168]', '< 500 nM'),
  ('Cc1cc(C(C)Nc2ccccc2C(=O)O)c2oc(-n3ncc4cc(F)ccc43)cc(=O)c2c1 (single isomer, unassigned) [Example 89]', '1000 to 5000 nM'),
  ('Cc1cc(C(C)Nc2ccccc2C(=O)O)c2oc(-c3ccn4nccc4c3)cc(=O)c2c1 (single isomer, unassigned) [Example 113]', '500 to 1000 nM'),
  ('Cc1cc(C(C)Nc2ccccc2C(=O)O)c2oc(-c3ccc4nn(C)cc4n3)c(C)c(=O)c2c1 (single isomer, unassigned) [Example 130]', '500 to 1000 nM'),
  ('Cc1cc(C(C)Nc2ccc(Cl)nc2C(=O)O)c2oc(-c3ccc4c(cnn4C)c3)cc(=O)c2c1 (single isomer, unassigned) [Example 218]', '< 500 nM'),
  ('Cc1cc(C(C)Nc2ccccc2C(=O)O)c2oc(-c3cccc4ocnc34)cc(=O)c2c1 (single isomer, unassigned) [Example 110]', '5000 to 10000 nM');
